# Tested on: gene editing with dCas9
# protocol.text: Screen of 322 new SSAP proteins, gene editing activity with dCas9 (Table 5)
# Type: cell-based
# test.conditions: normalized
I would appreciate it if you labelled entries label 1 when dCas9 with SSAP activity (normalized) is -0.5 or higher, otherwise label 0.

* SSAP_224: SEQ ID NO: 393; Clostridium tyrobutyricum (protein, listed as Clostridium tyrobutyricum) SDKKMVVLGESHKALSKLLETKQEALPKDFNKARFLQNCMTVLQDTKDIDKCQPISVARTMLKGAFLGLDFFNRECYAIPYGGNLQFQTDYKGEIKLAKKYSFNSIKDIYAKIVREGDDFQESIEDGRQTINFKPLPFNNGEIIGAFAVCLFQDGSMLYETMTKQEIEDIRNNFSKAKNSPAWVKTPGEMYKKTVLRRLCKLIELDFDSVETKKTYDETSEFEFGSANHEVSNFDKDDSNIIEADAEIQDDVQEGDGEDE | label 1
* SSAP_24: SEQ ID NO: 193 (protein) TNNQIVEAKGDFLTNPQLLNSGIIRKYLDPQGKASDEELAYFIAQAKAQNLNPFTKEIYFIKYGTQPAQIVTAKSAFEKKADSHPQFDGKEAGVIYLMDGEIKYSKGAFIPKGAEILGGWAKVYRKDRTYPTETEVSFEEYDNSKIRARVKELTQQGKDVTYPVMNSYGKPIGENNWDTMPCVMIRKVALVSAYREAFPAELGASYEADEIQLDNTPKDVTPQESREDVVARKMAEIEQFNKEQEANHADPEPTQNEDPIQGELLDGELEY | label 0
* SSAP_265: SEQ ID NO: 434; Clostridium coskatii (protein, listed as Clostridium coskatii) SDKKMVVLNESHTMLNKLLETKQEALPKDFNKARFLQNCMTVLQDTKGIEQCQPITVARTMLKGAFLGLDFFNKECYAIPYKDNLQFQTDYKGEIKLAKKYSFNPIKDIYAKIVRQGDDFQEAIINGQQTINFTPVPFNNGEIIGAFAVCLFQDGSMLYETMAKQEIENTRKNFSKAPNSPAWTKTPGEMYKKTVLRRLCKLIELDFDSVECKKVYNETSDFEFENQQHEVSNFDKKDIDEDKIVEADVEVQDDNENNVPEDGE | label 1
* SSAP_320: SEQ ID NO: 489; Pseudoalteromonas sp. MQS005 (protein, listed as Pseudoalteromonas sp.) SISQQDYENLLYSKLYECESQYQAYLAEHNEKLNFNAELNYMYKAVMSGVGIEGGFPYTPLESIVESFLKAAKLGLSLDPSEQFCFLRSQYDHSTGLYHTELGLGYKGVLHLAYRSGKVKQIVSNVFYNKDNFQFNGPNSKVTHTMTVLSTSARGNLAGGYCQTELVDGSFIVTVMPPEEILAIEEQGKSVGNPAWLSAHVNQMREKTLILRHWKTLYPAIYSSSLLDSAQIFDDECEEFPFSSPSQGFSESQTIGSY | label 1
* SSAP_82: SEQ ID NO: 251 (protein) ENEVMTQDQAYEVASPFGSSENFQKLFDIGKMFASSSLVPDRYRGKPMDCTIAVDMANRMGVSPMMVMQQLYVVKGNPQWSGQACMSLIRGSSEYKNVRPVYTGKKGEDSWGCYIEAEKKKTGEIVKGTEVTIAMAKAEGWYSKKDKYGNETSKWQTMPELMLAYRAAAFFARVYIPNALMGCAVEGEAEDIMKRAITAEDPFKEDAK | label 0
